B1: TRIM63 (parent)
chain: QEKKLSFIEALIQQYQEQLDKSTK

- Variants of: B1
- protocolDetails: protein stability index of a GFP-peptide fusion (GPS, HEK-293T) (PSI 1-6); higher = more stable;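 note: lentivirally expressed fusions sorted by FACS into six bins by GFP to DsRed ratio, PSI derived from sequencing read proportions per bin multiplied by bin number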
- experimentalConditions: c terminus: a fixed tail appended
Assign Criterion met whenever protein stability index does not fall below 2; assign Criterion not met whenever it does.

>>> classification("QEKKLSFIEALIQQYWEQLDKSTK [Q16W]")
"Criterion not met"
>>> classification("QEKKLSFISALIQQYQEQLDKSTK [E9S]")
"Criterion met"
>>> classification("QEKKLEFIEALIQQYQEQLDKSTK [S6E]")
"Criterion met"
>>> classification("QEKKLSFCEALIQQYQEQLDKSTK [I8C]")
"Criterion met"
>>> classification("QEKKLSFIEALINQYQEQLDKSTK [Q13N]")
"Criterion met"
>>> classification("QEKKLSFIEGLIQQYQEQLDKSTK [A10G]")
"Criterion met"
>>> classification("QEKCLSFIEALIQQYQEQLDKSTK [K4C]")
"Criterion not met"
>>> classification("QEKKLSFIEALIQQYQEQLDKFTK [S22F]")
"Criterion met"
>>> classification("QEKKLSFIESLIQQYQEQLDKSTK [A10S]")
"Criterion met"
>>> classification("QEKKCSFIEALIQQYQEQLDKSTK [L5C]")
"Criterion met"
>>> classification("QEKKLSFIEALIQQYQEQLDKSTY [K24Y]")
"Criterion not met"
>>> classification("QEKKASFIEALIQQYQEQLDKSTK [L5A]")
"Criterion met"
>>> classification("QEKKLSFIEALIQQYQEQLDKSTP [K24P]")
"Criterion met"
>>> classification("QEKKLSMIEALIQQYQEQLDKSTK [F7M]")
"Criterion met"
>>> classification("QAKKLSFIEALIQQYQEQLDKSTK [E2A]")
"Criterion not met"
>>> classification("QEKKLSFIEALIQQKQEQLDKSTK [Y15K]")
"Criterion met"
>>> classification("QEKKLSFIEALIQQYQEQLDKSYK [T23Y]")
"Criterion met"
>>> classification("QEKKLSFPEALIQQYQEQLDKSTK [I8P]")
"Criterion met"
>>> classification("QEKKLSFEEALIQQYQEQLDKSTK [I8E]")
"Criterion met"
>>> classification("CEKKLSFIEALIQQYQEQLDKSTK [Q1C]")
"Criterion met"
>>> classification("QEKALSFIEALIQQYQEQLDKSTK [K4A]")
"Criterion not met"
>>> classification("QEKKLSFIEALIQQYSEQLDKSTK [Q16S]")
"Criterion met"
>>> classification("QEKKLSFIEAQIQQYQEQLDKSTK [L11Q]")
"Criterion met"
>>> classification("QEKKYSFIEALIQQYQEQLDKSTK [L5Y]")
"Criterion met"
>>> classification("QEKKLSFIEALIQQYNEQLDKSTK [Q16N]")
"Criterion met"
>>> classification("QEKKLSFIEALIQQYQMQLDKSTK [E17M]")
"Criterion met"
>>> classification("QEKKLSFIHALIQQYQEQLDKSTK [E9H]")
"Criterion met"
>>> classification("QEKKLSFIEALIQQYQEQLTKSTK [D20T]")
"Criterion met"
>>> classification("QEKKLSFIEALIQQRQEQLDKSTK [Y15R]")
"Criterion met"
>>> classification("QEKKESFIEALIQQYQEQLDKSTK [L5E]")
"Criterion met"
>>> classification("QEKKLSGIEALIQQYQEQLDKSTK [F7G]")
"Criterion met"
>>> classification("QEKKLSFIEALIQQYQEQLIKSTK [D20I]")
"Criterion not met"
>>> classification("QEKKLSFIEALIQQVQEQLDKSTK [Y15V]")
"Criterion met"
>>> classification("QEKKLSFIEALIQQYVEQLDKSTK [Q16V]")
"Criterion met"
>>> classification("QEKKLSFIEALIQQYQEQLDKSVK [T23V]")
"Criterion met"
>>> classification("QEKYLSFIEALIQQYQEQLDKSTK [K4Y]")
"Criterion met"
>>> classification("QEKKLSFIEALIQQYQEQLDKSKK [T23K]")
"Criterion met"
>>> classification("QEKKLSFIEALIQQQQEQLDKSTK [Y15Q]")
"Criterion met"
>>> classification("QEYKLSFIEALIQQYQEQLDKSTK [K3Y]")
"Criterion met"
>>> classification("QEKKLSFIVALIQQYQEQLDKSTK [E9V]")
"Criterion not met"
>>> classification("QEKKHSFIEALIQQYQEQLDKSTK [L5H]")
"Criterion met"
>>> classification("QEKKLSFIEALIQQYQEQLDKSIK [T23I]")
"Criterion not met"
>>> classification("QEKKLSFIEALIQQYQEQLDKSDK [T23D]")
"Criterion met"
>>> classification("QEKKLSFIEALIQWYQEQLDKSTK [Q14W]")
"Criterion not met"
>>> classification("QEKKLSFIEALIQQYQEQLDKSTT [K24T]")
"Criterion met"
>>> classification("QEKKLSFIEALIQQYQEQLHKSTK [D20H]")
"Criterion not met"
>>> classification("QEKKLSFIEAWIQQYQEQLDKSTK [L11W]")
"Criterion met"
>>> classification("QEKQLSFIEALIQQYQEQLDKSTK [K4Q]")
"Criterion met"
>>> classification("QEKKLSFIEALLQQYQEQLDKSTK [I12L]")
"Criterion met"
>>> classification("QEKKLSFIEALIQQYQEQLDKSQK [T23Q]")
"Criterion met"
>>> classification("QEKKLSFIEALIQQYQEQLDKQTK [S22Q]")
"Criterion met"
>>> classification("QEKELSFIEALIQQYQEQLDKSTK [K4E]")
"Criterion met"
>>> classification("QEKKLSYIEALIQQYQEQLDKSTK [F7Y]")
"Criterion met"
>>> classification("QEKKLSFIEALIQQYQEQLDHSTK [K21H]")
"Criterion met"
>>> classification("QEKKLSFIEALIPQYQEQLDKSTK [Q13P]")
"Criterion met"
>>> classification("QQKKLSFIEALIQQYQEQLDKSTK [E2Q]")
"Criterion met"
>>> classification("QCKKLSFIEALIQQYQEQLDKSTK [E2C]")
"Criterion not met"
>>> classification("QEKKLSFIEALIQQYFEQLDKSTK [Q16F]")
"Criterion met"
>>> classification("QEKTLSFIEALIQQYQEQLDKSTK [K4T]")
"Criterion met"
>>> classification("QEKKLSFIEALIQQYQEELDKSTK [Q18E]")
"Criterion met"
>>> classification("QEKKLSFIEALIQQYQEQLDDSTK [K21D]")
"Criterion met"
>>> classification("QEKKLSFKEALIQQYQEQLDKSTK [I8K]")
"Criterion met"
>>> classification("NEKKLSFIEALIQQYQEQLDKSTK [Q1N]")
"Criterion met"
